Target desc: Ikaros (Homo sapiens, UniProt Q13422)
Construct: fluorescently labelled antibodies against Helios and Ikaros; endogenous in cells; host or cells: Jurkat cells
Sequence (Q96SW2 whole entry partner): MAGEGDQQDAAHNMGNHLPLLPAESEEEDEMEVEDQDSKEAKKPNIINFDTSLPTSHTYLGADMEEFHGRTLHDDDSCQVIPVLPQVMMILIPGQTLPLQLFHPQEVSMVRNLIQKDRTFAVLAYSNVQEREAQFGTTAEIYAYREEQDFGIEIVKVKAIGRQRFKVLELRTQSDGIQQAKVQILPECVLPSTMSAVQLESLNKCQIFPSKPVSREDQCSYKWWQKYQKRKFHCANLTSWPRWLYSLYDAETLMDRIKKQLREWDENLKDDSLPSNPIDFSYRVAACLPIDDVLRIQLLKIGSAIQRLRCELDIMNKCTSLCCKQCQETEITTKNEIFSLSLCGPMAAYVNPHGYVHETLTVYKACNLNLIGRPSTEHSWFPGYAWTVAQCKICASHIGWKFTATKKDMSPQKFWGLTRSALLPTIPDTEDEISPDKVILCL
Sequence (Q16531 whole entry partner): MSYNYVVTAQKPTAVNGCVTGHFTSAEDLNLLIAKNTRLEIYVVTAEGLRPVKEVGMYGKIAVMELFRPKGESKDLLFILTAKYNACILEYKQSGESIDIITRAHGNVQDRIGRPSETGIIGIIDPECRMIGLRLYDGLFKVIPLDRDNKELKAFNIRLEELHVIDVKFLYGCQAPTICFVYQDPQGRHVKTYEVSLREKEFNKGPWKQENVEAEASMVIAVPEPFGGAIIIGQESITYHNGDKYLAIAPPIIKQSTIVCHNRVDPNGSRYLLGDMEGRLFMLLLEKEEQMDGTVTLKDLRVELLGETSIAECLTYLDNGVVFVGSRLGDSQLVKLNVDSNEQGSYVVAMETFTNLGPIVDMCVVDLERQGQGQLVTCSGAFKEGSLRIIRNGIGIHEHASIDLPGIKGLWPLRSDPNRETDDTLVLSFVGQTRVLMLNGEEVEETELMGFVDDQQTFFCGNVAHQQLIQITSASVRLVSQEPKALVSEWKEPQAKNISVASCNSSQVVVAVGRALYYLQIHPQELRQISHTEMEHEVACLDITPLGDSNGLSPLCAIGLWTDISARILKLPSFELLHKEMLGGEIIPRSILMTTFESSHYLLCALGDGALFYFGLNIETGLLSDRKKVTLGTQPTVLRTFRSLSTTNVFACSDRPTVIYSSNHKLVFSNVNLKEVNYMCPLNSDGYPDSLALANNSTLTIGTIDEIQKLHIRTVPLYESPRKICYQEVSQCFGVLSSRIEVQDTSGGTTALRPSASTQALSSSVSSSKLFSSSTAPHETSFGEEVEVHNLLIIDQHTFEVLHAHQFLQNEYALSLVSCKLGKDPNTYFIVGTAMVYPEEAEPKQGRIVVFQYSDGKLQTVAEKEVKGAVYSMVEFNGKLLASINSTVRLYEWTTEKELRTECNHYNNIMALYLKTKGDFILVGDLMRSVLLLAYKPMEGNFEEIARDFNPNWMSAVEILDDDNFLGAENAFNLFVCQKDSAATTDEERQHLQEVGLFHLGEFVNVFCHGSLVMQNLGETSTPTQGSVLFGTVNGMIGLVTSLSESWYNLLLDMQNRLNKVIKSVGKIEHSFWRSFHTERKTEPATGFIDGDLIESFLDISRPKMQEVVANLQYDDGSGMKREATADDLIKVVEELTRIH
Sequence (Q13422 whole entry): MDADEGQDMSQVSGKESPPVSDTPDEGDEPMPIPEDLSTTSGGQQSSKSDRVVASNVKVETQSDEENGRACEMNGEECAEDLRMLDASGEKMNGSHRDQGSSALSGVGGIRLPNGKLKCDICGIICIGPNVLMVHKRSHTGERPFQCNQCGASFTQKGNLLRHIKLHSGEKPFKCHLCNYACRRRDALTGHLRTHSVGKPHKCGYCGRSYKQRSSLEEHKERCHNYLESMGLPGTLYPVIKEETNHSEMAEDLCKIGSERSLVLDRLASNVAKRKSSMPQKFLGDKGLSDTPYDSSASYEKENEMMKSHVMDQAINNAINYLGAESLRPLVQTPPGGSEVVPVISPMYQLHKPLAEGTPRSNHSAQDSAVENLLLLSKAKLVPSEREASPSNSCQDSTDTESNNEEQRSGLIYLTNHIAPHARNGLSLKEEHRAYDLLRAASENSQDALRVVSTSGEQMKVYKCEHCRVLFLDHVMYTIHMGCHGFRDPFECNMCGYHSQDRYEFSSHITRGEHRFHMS
Method notes: Helios Cellular Degradation Assay, Ikaros readout (flow cytometry, Ikaros-Alexa488 antibody staining, 72 h)
Type: cell-based
Test context: Jurkat, Jurkat cells, 72 h incubation, flow cytometry; read-out: Ikaros Dmax
Returns the class for an entry based on its Dmax. Class ranges: lower range: < 6%; middle range: ≥ 6% and < 10%; upper range: ≥ 10%

For this compound, which bin applies? O=C1CCC(N2Cc3c(ccc(-c4cc(CN5CC(c6ccccc6)C5)ccn4)c3F)C2=O)C(=O)N1 (stereo not shown)
upper range

Lab note: which band did CC(C)(C)CNCc1ccnc(-c2ccc3c(c2)CN(C2CCC(=O)NC2=O)C3=O)c1 (stereo not shown) land in?
middle range

Textbook exercise: identify the category of the compound given here, CN(Cc1ccnc(-c2ccc3c(c2)CN(C2CCC(=O)NC2=O)C3=O)c1)Cc1ccc2ccccc2c1 (stereo not shown) , according to its measured value.
lower range

Categorize the following entry: CC(=O)NCCNCc1ccnc(-c2ccc3c(c2)CN(C2CCC(=O)NC2=O)C3=O)c1 (stereo not shown)
lower range

Just checking, what class would you give NC(=O)C1CCN1Cc1ccnc(-c2ccc3c(c2)CN(C2CCC(=O)NC2=O)C3=O)c1 (stereo not shown) here?
middle range

Hello team, could you let me know which band the following compound falls into: CN(Cc1ccc([N+](=O)[O-])cc1)Cc1ccnc(-c2ccc3c(c2)CN(C2CCC(=O)NC2=O)C3=O)c1 (stereo not shown)
lower range

Assign a category based on measured Dmax for COc1cccc(CN(C)Cc2ccnc(-c3ccc4c(c3)CN(C3CCC(=O)NC3=O)C4=O)c2)c1 (stereo not shown) and give only the class name.
lower range

Please report the category associated with CCN(CC)Cc1ccnc(-c2ccc3c(c2)CN(C2CCC(=O)NC2=O)C3=O)c1 (stereo not shown) , nothing else.
upper range

Just checking, what class would you give O=C1CCC(N2Cc3cc(-c4cc(CN5CC(c6cccnc6)C5)ccn4)ccc3C2=O)C(=O)N1 (stereo not shown) here?
upper range

Pick a category. Item: CCNCc1ccnc(-c2ccc3c(c2)CN(C2CCC(=O)NC2=O)C3=O)c1 (stereo not shown)
upper range

Hi, small favor: classify CN(C)Cc1ccnc(-c2ccc3c(c2)CN(C2CCC(=O)NC2=O)C3=O)c1 (stereo not shown) by its Dmax when you get a moment.
middle range

Place this compound in its band: O=C1CCC(N2Cc3cc(-c4cc(CN5CC[C@@H](c6ccccc6)C5)ccn4)ccc3C2=O)C(=O)N1 (stereo partly shown)
lower range

Classify this compound: O=C1CCC(N2Cc3cc(-c4cc(CN5CCC(n6c(=O)[nH]c7ccccc76)CC5)ccn4)ccc3C2=O)C(=O)N1 (stereo not shown)
middle range

Please report the category associated with CC(C)CCNCc1ccnc(-c2ccc3c(c2)CN(C2CCC(=O)NC2=O)C3=O)c1 (stereo not shown) , nothing else.
upper range

The reported numbers originate from patent US11548870B2.
